Tested on: MILI (PIWIL2) piRISC loaded with piRNA #1 (26 nt);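 note: 1 nM active piRISC with 0.1 nM target library at 33 °C single turnover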
PROCEDURE_DETAILS: pre-steady-state target cleavage rate (min^-1); guide: piRNA #1 5'p-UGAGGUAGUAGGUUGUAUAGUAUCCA; MIWI and MILI are mouse PIWI proteins and EfPiwi is from a freshwater sponge; tags in brackets are library labels; higher = faster piRNA-guided slicing of the target
RUN_CONDITIONS: auxiliary factor: 500 nM mouse GTSF1
Label Y when pre-steady-state target cleavage rate is at or above 0.02; anything below gets N.

Worked examples follow.
[
  {
    "POLYMER_SEQUENCE": "GGAGACCUAUGUAUAGAAGCUACUACCUCA",
    "CLASS_LABEL": "Y"
  },
  {
    "POLYMER_SEQUENCE": "GGAGACCAAACUAUACAACCUACUACCUGA",
    "CLASS_LABEL": "Y"
  },
  {
    "POLYMER_SEQUENCE": "GGAGACCUAUGAAUACCACCUACUACCUCA",
    "CLASS_LABEL": "N"
  },
  {
    "POLYMER_SEQUENCE": "GGAGACCUAUGAUAUGUACCUUCUACGUCA",
    "CLASS_LABEL": "N"
  },
  {
    "POLYMER_SEQUENCE": "GGAGAGGAUACUACUACAACCUACUACCUCA",
    "CLASS_LABEL": "Y"
  },
  {
    "POLYMER_SEQUENCE": "GGAGAGGAUACUAUAGAACCUACUACCUGA",
    "CLASS_LABEL": "Y"
  },
  {
    "POLYMER_SEQUENCE": "GGAGACCUUACUAUACAACCUACUAGCUCA",
    "CLASS_LABEL": "Y"
  },
  {
    "POLYMER_SEQUENCE": "GGAGACCUUACUAUUCAACCAACUACCUCA",
    "CLASS_LABEL": "N"
  },
  {
    "POLYMER_SEQUENCE": "GGAGACCUAACGAUACAACCUACUACCUCA",
    "CLASS_LABEL": "Y"
  },
  {
    "POLYMER_SEQUENCE": "GGAGUGGAUACUAUACAUCCAACUACCUCA",
    "CLASS_LABEL": "N"
  }
]

Quick check, pre-steady-state target cleavage rate >= 0.02? GGAGACCUAUGAAUACAACCUCACUACCUCA
N

Reported pre-steady-state target cleavage rate reaches at least 0.02 for GGAGACCUAUGUAAACAACCUACUACCUCA ?
N

Quick check: does GGAGAAGAUACUAUACAACCUACUACCUCA have pre-steady-state target cleavage rate greater than or equal to 0.02?
Y

Reported pre-steady-state target cleavage rate reaches at least 0.02 for GGAGACCUUACUAUACGACCUACUACCUCA ?
Y

Could you verify whether the entry GGAGACCUAUGAUAUGUUGCUACUGACCUCA shows pre-steady-state target cleavage rate of no less than 0.02?
N

Say whether GGAGACCAUACUAUACAACCCACUACCUCA shows pre-steady-state target cleavage rate of 0.02 or more.
Y

Does the sequence GGAGACCUAUGAUAACAACCUACUAGCCUCA have recorded pre-steady-state target cleavage rate that is 0.02 or more?
N
